testMethodNotes: loss of viability in HepG2 cells – cell-based, CellTiter-Glo, cherry-picked, cytotoxicity control for Shn3 inhibitor project, dose response (AID 624134)
Type: functional
The source made the active and inactive calls.

{"compound": "Fc1ccc2[nH]c3c(N4CCc5ccccc5C4)ncnc3c2c1", "AC50": "3.91 µM (active)"}
{"compound": "Cc1ccc(-n2nnnc2-c2cnc(-c3cccnc3)nc2C(F)(F)F)cc1", "AC50": "57.4 µM (active)"}
{"compound": "Cc1ccc2c(c1)nnn2C1CCN(S(=O)(=O)c2ccc(C(=O)N3C(C)CCCC3C)cc2)CC1 (centres undefined)", "AC50": "60.8 µM (active)"}
{"compound": "Cc1ccc(NC(=O)Cc2nn(C)c(=O)c3ccccc23)cc1F", "AC50": "3.46 µM (active)"}

----------
targetUnderTest: Corticotropin-releasing factor receptor 2/Corticotropin-releasing factor-binding protein (Homo sapiens, UniProt P24387+Q13324)
Sequence (Q13324 whole entry): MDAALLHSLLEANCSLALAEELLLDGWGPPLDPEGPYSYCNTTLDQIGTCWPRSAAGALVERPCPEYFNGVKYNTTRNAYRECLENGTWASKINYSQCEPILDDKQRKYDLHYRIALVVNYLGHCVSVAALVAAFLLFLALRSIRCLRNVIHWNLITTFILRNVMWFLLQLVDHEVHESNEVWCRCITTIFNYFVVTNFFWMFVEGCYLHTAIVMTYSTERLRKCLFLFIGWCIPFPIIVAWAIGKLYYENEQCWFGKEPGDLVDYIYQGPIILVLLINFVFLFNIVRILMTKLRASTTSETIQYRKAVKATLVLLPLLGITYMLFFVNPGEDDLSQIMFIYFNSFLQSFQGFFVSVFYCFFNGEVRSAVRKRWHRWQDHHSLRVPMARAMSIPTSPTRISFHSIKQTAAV
Sequence (P24387 whole entry): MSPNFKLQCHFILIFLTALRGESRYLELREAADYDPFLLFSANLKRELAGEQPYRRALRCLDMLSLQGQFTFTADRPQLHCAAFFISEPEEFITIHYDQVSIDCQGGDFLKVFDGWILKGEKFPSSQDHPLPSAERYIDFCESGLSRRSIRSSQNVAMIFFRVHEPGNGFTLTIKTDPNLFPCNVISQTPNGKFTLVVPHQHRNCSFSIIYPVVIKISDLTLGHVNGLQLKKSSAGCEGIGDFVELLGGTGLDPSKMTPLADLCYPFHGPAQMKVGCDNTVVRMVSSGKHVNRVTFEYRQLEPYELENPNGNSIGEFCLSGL
testMethodNotes: activators of CRF receptor 2 with binding protein – uHTS hits, confirmation (AID 602473)
Format: functional
measurementSetup: read-out: EC50_Mean
The source made the active and inactive calls.
Labels: Yes for active, No for inactive

{"molecule": "COC(=O)C1=C/C=C\\CN(C(c2ccccc2)c2ccccc2)/C=C\\1C(=O)OC", "classification": "No"}
{"molecule": "CC(C)CC(C(=O)Nn1cnnc1)N1C(=O)c2ccccc2C1=O (stereo not drawn)", "classification": "No"}
{"molecule": "CCOC(=O)c1ccc(NCn2c(=O)oc3ccccc32)cc1", "classification": "No"}
{"molecule": "C[C@@H]1CCCCO[C@@H](CN(C)CC2CC2)[C@@H](C)CN([C@H](C)CO)C(=O)c2cc(N(C)C)ccc2O1", "classification": "No"}
{"molecule": "CC(C)CC(NC(=O)c1ccccc1)C(=O)N/N=C/c1ccco1 (stereo not drawn)", "classification": "Yes"}
{"molecule": "CCCCC(=O)Nc1ccc(C(=O)Nc2ccc(OC)cc2[N+](=O)[O-])cc1", "classification": "Yes"}
{"molecule": "COc1ccc(SCC(=O)Nc2ccccc2Cl)cc1", "classification": "No"}
{"molecule": "Cc1ccc(-c2nnc(SCC(=O)N3CCN(c4ccccc4)CC3)o2)cc1", "classification": "No"}

----------
targetUnderTest: UniProt:Q194T2
Sequence (Q194T2 whole entry): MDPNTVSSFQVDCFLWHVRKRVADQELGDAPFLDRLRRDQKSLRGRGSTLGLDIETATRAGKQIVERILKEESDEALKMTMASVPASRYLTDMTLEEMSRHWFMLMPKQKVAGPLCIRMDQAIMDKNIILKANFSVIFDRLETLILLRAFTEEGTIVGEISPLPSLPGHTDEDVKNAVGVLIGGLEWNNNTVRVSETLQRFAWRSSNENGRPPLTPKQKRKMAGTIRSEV
Assay type: functional, Influenza A virus (A/California/07/2009(H1N1))
Activity calls are given as the source filed them.
IC50 reference
reportedMetric: IC50

{"substanceSmiles": "CCCOc1ccccc1-n1sc2c(c1=S)-c1cc(OC)cc3c1N(C(=O)C3=O)C2(C)C", "reportedMetric": "IC50", "experimentalValue": "9.35 µM (active)"}
{"substanceSmiles": "COc1ccc(C2=NS(=O)(=O)N(C)C(C(=O)Nc3ccc4c(c3)OCO4)=C2)cc1OC", "reportedMetric": "IC50", "experimentalValue": "> 100 µM (active)"}
{"substanceSmiles": "Cc1cc(C)nc(N/N=C/c2c(CO)cnc(C)c2O)n1", "reportedMetric": "IC50", "experimentalValue": "20.2 µM (active)"}
{"substanceSmiles": "CCCn1cnc2cc(NCc3ccccn3)ccc21", "reportedMetric": "IC50", "experimentalValue": "> 100 µM (active)"}

----------
targetUnderTest: Genome polyprotein (dengue virus type 2, UniProt P29990)
testMethodNotes: flavivirus cap methylation enzyme inhibition – biochemical, confirmation dose response, primary screen (AID 588689)
Assay type: functional
Active and inactive are the calls of the source.
reportedMetric: IC50

{"compound": "CCc1ccc(N2C(=O)c3sc4nnc(-c5ccccc5)c(=O)n4c3C2=O)cc1", "targetUnderTest": "Genome polyprotein (dengue virus type 2, UniProt P29990)", "experimentalValue": "48.5 µM (active)"}
{"compound": "Nc1cccc2c1C(=O)N(C(=O)/C=C/c1cccc(F)c1)C2=O", "targetUnderTest": "Genome polyprotein (dengue virus type 2, UniProt P29990)", "experimentalValue": "> 100 µM (active)"}
{"compound": "CC1=NN(Cc2ccccc2)C(=O)C1C(c1ccc(Cl)cc1)C(C#N)C#N (stereo not given)", "targetUnderTest": "Genome polyprotein (dengue virus type 2, UniProt P29990)", "experimentalValue": "55.2 µM (active)"}
{"compound": "O=C(NNc1ccc(O)cc1)c1ccc(Br)cc1", "targetUnderTest": "Genome polyprotein (dengue virus type 2, UniProt P29990)", "experimentalValue": "> 100 µM (active)"}
{"compound": "O=C(O)[C@H](Cc1ccccc1)N1C(=O)c2c(Cl)c(Cl)c(Cl)c(Cl)c2C1=O", "targetUnderTest": "Genome polyprotein (dengue virus type 2, UniProt P29990)", "experimentalValue": "23.9 µM (active)"}

----------
IC50 reference
targetUnderTest: Steroidogenic factor 1 (Homo sapiens, UniProt Q13285)
Sequence (Q13285 whole entry): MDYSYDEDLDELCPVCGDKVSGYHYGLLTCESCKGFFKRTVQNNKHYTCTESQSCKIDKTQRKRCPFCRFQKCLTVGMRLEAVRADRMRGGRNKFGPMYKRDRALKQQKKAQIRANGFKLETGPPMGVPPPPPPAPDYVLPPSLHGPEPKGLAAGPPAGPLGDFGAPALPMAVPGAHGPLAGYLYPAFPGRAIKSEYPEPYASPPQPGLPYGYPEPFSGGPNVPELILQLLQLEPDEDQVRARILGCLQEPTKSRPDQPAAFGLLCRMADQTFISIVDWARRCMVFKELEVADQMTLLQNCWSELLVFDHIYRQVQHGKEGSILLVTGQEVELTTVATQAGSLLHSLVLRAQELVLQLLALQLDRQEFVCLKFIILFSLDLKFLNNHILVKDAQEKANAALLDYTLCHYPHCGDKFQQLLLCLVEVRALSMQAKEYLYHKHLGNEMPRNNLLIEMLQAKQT
testMethodNotes: Counterscreen for inverse agonists of the liver receptor homolog-1 (LRH-1; NR5A2): Luminescence-based cell-based high throughput dose response assay to identify inverse agonists of the Steroidogenic Factor 1 Nuclear Receptor (SF1; NR5A1).
Assay type: functional
Activity calls are given as the source filed them.
reportedMetric: IC50

{"substanceSmiles": "Cc1ccc(C)c(NC(=O)CSc2nc(O)c3c[nH]nc3n2)c1", "targetUnderTest": "Steroidogenic factor 1 (Homo sapiens, UniProt Q13285)", "reportedMetric": "IC50", "experimentalValue": "6.65 µM (active)"}
{"substanceSmiles": "COc1ccc(NC(=O)CSc2nc(N)c(-c3ccccc3)c(O)n2)cc1", "targetUnderTest": "Steroidogenic factor 1 (Homo sapiens, UniProt Q13285)", "reportedMetric": "IC50", "experimentalValue": "2.36 µM (active)"}
{"substanceSmiles": "CC(=O)Nc1ccc(NC(=O)CSc2nnc(NC(=O)C3CC3)s2)cc1", "targetUnderTest": "Steroidogenic factor 1 (Homo sapiens, UniProt Q13285)", "reportedMetric": "IC50", "experimentalValue": "8.29 µM (active)"}
{"substanceSmiles": "CC(=O)Nc1ccc(NC(=O)CSc2ccc(-c3ccc(-n4ccnc4)cc3)nn2)cc1", "targetUnderTest": "Steroidogenic factor 1 (Homo sapiens, UniProt Q13285)", "reportedMetric": "IC50", "experimentalValue": "35.9 µM (inactive)"}

----------
targetUnderTest: E3 ubiquitin-protein ligase Mdm2 (Homo sapiens, UniProt Q00987)
Sequence (Q00987 whole entry): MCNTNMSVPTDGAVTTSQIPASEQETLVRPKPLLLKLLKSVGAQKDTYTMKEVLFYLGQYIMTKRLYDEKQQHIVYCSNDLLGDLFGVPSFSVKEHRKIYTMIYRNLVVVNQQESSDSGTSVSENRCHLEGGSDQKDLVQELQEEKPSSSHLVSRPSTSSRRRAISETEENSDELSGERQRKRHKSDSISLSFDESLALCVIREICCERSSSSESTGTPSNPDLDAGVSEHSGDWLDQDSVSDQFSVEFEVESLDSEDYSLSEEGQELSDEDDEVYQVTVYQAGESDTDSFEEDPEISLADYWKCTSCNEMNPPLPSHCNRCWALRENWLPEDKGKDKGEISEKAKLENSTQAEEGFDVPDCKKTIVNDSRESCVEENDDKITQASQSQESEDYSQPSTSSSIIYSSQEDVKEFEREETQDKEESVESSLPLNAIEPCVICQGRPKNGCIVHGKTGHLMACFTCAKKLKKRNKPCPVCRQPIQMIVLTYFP
testMethodNotes: MDM2-luc reporter signal enhancers, multi-concentration potency testing, MDM2 ubiquitin-protein ligase inhibitor program, whole-cell format, luminescence detection, 384-well microplate (AID 1394);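 further: MDM2 E3 inhibitors raise luminescence so EC50 is for signal enhancement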
Assay type: functional
Activity calls are given as the source filed them.

{"compound": "Cc1n[nH]c(NC(=O)/C=C/c2ccccc2)n1", "EC50": "1.09 µM (active)"}
{"compound": "C=C1C(=O)O[C@@H]2C[C@@H](C)[C@@H]3C4OC4C(=O)[C@@]3(C)[C@@H](O)[C@H]12 (some centres undefined)", "EC50": "11.6 µM (not active)"}
{"compound": "Cc1cccc(Nc2nnc(SCC3CCCCO3)s2)c1C (centres undefined)", "EC50": "12.4 µM (not active)"}
{"compound": "CCSc1nc2ccccc2n1C(=O)/C=C\\c1ccc(OC)c(OC)c1", "EC50": "0.24 µM (active)"}

----------
Observed AC50 for Cytochrome P450 3A4 (Homo sapiens, UniProt P08684), reported per entry below.
reportedMetric: AC50

{"compound": "NCCNC(=O)c1ncsc1-c1cccc(F)c1", "targetUnderTest": "Cytochrome P450 3A4 (Homo sapiens, UniProt P08684)", "experimentalValue": "31.6 µM (inconclusive)"}
{"compound": "O=C(Nc1nnc(SCc2ccc(Cl)cc2)s1)c1ccco1", "targetUnderTest": "Cytochrome P450 3A4 (Homo sapiens, UniProt P08684)", "experimentalValue": "31.6 µM (inconclusive)"}
{"compound": "CN1c2ccccc2C(O)=C(C(=O)Nc2ccccc2)S1(=O)=O", "targetUnderTest": "Cytochrome P450 3A4 (Homo sapiens, UniProt P08684)", "experimentalValue": "39.8 µM (inconclusive)"}
{"compound": "CCc1sc(N(C(=O)Cc2ccccc2)c2cccc(F)c2)nc1-c1ccc(C)cc1", "targetUnderTest": "Cytochrome P450 3A4 (Homo sapiens, UniProt P08684)", "experimentalValue": "17.8 µM (inconclusive)"}
{"compound": "CCOC(=O)CSc1n[nH]c(-c2cccnc2)n1", "targetUnderTest": "Cytochrome P450 3A4 (Homo sapiens, UniProt P08684)", "experimentalValue": "15.8 µM (inconclusive)"}
{"compound": "CS(=O)(=O)N1CCC2(CCN(Cc3ccncc3)CC2)CC1", "targetUnderTest": "Cytochrome P450 3A4 (Homo sapiens, UniProt P08684)", "experimentalValue": "12.6 µM (inconclusive)"}
{"compound": "Cc1cnc(CNc2ncncc2-c2ccccc2Cl)cn1", "targetUnderTest": "Cytochrome P450 3A4 (Homo sapiens, UniProt P08684)", "experimentalValue": "0.251 µM (inconclusive)"}
{"compound": "Cc1n[nH]c(C)c1N=Nc1cc(Cl)ccc1Cl", "targetUnderTest": "Cytochrome P450 3A4 (Homo sapiens, UniProt P08684)", "experimentalValue": "17.8 µM (inconclusive)"}
{"compound": "CCCC(=O)NNC(=O)CCC(=O)NCc1ccccc1", "targetUnderTest": "Cytochrome P450 3A4 (Homo sapiens, UniProt P08684)", "experimentalValue": "0.0562 µM (inconclusive)"}
{"compound": "CCOC(=O)C1=C(c2ccccc2)N=c2s/c(=C\\c3cc(OC)c(OC)c(OC)c3)c(=O)n2C1c1cccs1 (configuration not stated)", "targetUnderTest": "Cytochrome P450 3A4 (Homo sapiens, UniProt P08684)", "experimentalValue": "7.08 µM (inconclusive)"}
{"compound": "O=C(CSc1nc2ccccc2c(=O)n1CCCO)NCc1ccccc1", "targetUnderTest": "Cytochrome P450 3A4 (Homo sapiens, UniProt P08684)", "experimentalValue": "3.55 µM (inconclusive)"}
{"compound": "CCOc1cc(/C=N/O)cc(Cl)c1OC", "targetUnderTest": "Cytochrome P450 3A4 (Homo sapiens, UniProt P08684)", "experimentalValue": "31.6 µM (inconclusive)"}

meta.source: ChEMBL document CHEMBL1201862
